Value source: ChEMBL document CHEMBL4385610

Target: UniProtKB Q9UBN7
Assay: Inhibition of dye-labeled tracer binding to HDAC6 (unknown origin) transfected in human HeLa cells measured after 2 hrs by nano-luciferase reporter gene-based BRET assay
Metric: log10(IC50) (log10 of the value in nM)

In [3]: df
Out[3]:
                                    compound  observed
 0   CN(C)Cc1nn(Cc2ccc(C(=O)NO)cc2)c2ccccc12      2.10
 1     Cc1c(C)n(Cc2ccc(C(=O)NO)cc2)c2ccccc12      1.50
 2  Cn1cncc1-c1cn(Cc2ccc(C(=O)NO)cc2)c2ccccc12      1.90
 3           O=C(NO)c1ccc(Cn2ccc3ccccc32)cc1      1.80
 4   CC(C)(C)c1cc2ccccc2n1Cc1ccc(C(=O)NO)cc1      3.30
 5   O=C(NO)c1ccc(Cn2c3c(c4ccccc42)CCCC3)cc1      1.80
 6   CN(C)Cc1cn(Cc2ccc(C(=O)NO)cc2)c2ccccc12      2.20
 7      O=C(NO)c1ccc(Cn2cc(CCO)c3ccccc32)cc1      1.50
 8  CN1CCc2c(n(Cc3ccc(C(=O)NO)cc3)c3ccccc23)C1      1.80
 9  CN1CCCC1c1cn(Cc2ccc(C(=O)NO)cc2)c2ccccc12 (racemic)      2.10
10   O=C(NO)c1ccc(Cn2c3c(c4ccccc42)COCC3)cc1      1.30

* * *

Biological target: Histone deacetylase 2 (Homo sapiens)
Sequence (Q92769 whole entry): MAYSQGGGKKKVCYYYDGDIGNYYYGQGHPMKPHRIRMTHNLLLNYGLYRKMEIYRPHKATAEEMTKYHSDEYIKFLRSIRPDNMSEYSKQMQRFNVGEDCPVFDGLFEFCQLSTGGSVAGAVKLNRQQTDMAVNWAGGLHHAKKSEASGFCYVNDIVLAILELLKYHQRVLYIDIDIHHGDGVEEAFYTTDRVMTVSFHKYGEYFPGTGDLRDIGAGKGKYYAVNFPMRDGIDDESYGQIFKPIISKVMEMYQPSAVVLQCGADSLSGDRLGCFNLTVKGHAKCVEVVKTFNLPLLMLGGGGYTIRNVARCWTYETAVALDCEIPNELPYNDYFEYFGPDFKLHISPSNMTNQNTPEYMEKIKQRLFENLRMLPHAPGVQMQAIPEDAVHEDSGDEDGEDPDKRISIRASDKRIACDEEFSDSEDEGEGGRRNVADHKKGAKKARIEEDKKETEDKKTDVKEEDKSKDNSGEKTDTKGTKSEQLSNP
Experiment: Inhibition of recombinant full-length C-terminal His-tagged human HDAC2 expressed in baculovirus infected Sf9 insect cells measured after 40 mins by HDAC-Glo1/2 luminescent assay
Below, each of the molecules is paired with its reported IC50 value.
Metric: IC50 (µM)

>>> df
                                   molecule  metric  observed
0  O=C(NO)c1ccc(Cn2cc(CN3CCCC3)c3ccccc32)cc1    IC50      6.31
1   CN(C)Cc1nn(Cc2ccc(C(=O)NO)cc2)c2ccccc12    IC50      7.94
2   CN(C)Cc1cn(Cc2ccc(C(=O)NO)cc2)c2ccccc12    IC50      6.31
3   O=C(NO)c1ccc(Cn2c3c(c4ccccc42)COCC3)cc1    IC50      7.94
4     Cc1c(C)n(Cc2ccc(C(=O)NO)cc2)c2ccccc12    IC50      12.6
5  CN1CCCC1c1cn(Cc2ccc(C(=O)NO)cc2)c2ccccc12 (racemic)    IC50         2
6  Cn1cncc1-c1cn(Cc2ccc(C(=O)NO)cc2)c2ccccc12    IC50      3.16
7  CN1CCc2c(n(Cc3ccc(C(=O)NO)cc3)c3ccccc23)C1    IC50      25.1

* * *

Biological target: Protein deacetylase HDAC6 (Homo sapiens, UniProt Q9UBN7)
Sequence (Q9UBN7 whole entry): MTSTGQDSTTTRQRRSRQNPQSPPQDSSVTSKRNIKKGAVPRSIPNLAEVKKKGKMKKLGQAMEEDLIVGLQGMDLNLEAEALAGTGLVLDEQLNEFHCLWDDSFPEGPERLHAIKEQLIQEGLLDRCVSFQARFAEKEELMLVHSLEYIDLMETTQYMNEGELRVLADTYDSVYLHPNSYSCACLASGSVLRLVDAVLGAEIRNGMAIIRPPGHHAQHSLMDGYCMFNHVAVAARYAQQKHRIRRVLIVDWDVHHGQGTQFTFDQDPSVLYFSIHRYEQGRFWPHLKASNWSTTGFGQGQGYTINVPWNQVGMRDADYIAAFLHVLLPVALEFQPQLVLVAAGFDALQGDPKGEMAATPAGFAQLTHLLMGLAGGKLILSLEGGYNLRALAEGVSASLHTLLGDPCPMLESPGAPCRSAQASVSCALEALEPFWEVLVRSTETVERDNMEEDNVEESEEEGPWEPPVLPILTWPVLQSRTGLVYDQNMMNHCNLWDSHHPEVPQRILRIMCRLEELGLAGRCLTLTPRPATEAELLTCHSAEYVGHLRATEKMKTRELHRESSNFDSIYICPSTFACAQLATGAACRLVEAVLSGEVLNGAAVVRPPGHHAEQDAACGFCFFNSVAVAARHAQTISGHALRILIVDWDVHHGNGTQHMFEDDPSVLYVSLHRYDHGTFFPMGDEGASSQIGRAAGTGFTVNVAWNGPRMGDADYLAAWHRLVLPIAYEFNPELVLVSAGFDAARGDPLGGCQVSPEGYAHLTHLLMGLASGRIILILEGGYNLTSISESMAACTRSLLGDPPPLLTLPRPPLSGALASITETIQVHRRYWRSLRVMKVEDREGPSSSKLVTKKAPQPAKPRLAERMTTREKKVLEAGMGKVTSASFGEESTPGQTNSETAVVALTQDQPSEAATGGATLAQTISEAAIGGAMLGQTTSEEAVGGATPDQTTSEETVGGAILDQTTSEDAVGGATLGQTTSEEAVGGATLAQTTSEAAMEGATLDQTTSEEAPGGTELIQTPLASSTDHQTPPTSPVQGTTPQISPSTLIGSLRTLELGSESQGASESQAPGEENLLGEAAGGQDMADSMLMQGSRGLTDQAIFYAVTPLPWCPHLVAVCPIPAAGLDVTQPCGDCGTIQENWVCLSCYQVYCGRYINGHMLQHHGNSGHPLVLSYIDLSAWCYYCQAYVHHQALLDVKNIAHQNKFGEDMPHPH
Assay: Inhibition of dye-labeled tracer binding to HDAC6 (unknown origin) transfected in human HeLa cells measured after 2 hrs by nano-luciferase reporter gene-based BRET assay
Format: cell-based
Criterion: IC50 strictly under 0.06 µM. Met: label 1. Not met: label 0.

>>> print(df.to_string())
                            compound_string                              assay_system  classification
0     COCCc1cn(Cc2ccc(C(=O)NO)cc2)c2ccccc12  Protein deacetylase HDAC6 (Homo sapiens, UniProt Q9UBN7)         label 0
1   O=C(NO)c1ccc(Cn2c3c(c4ccccc42)CSCC3)cc1  Protein deacetylase HDAC6 (Homo sapiens, UniProt Q9UBN7)         label 0
2     O=C(NO)c1ccc(Cn2c3ccccc3c3ccccc32)cc1  Protein deacetylase HDAC6 (Homo sapiens, UniProt Q9UBN7)         label 1
3  CC(=O)N1CCc2c(c3ccccc3n2Cc2ccc(C(=O)NO)cc2)C1  Protein deacetylase HDAC6 (Homo sapiens, UniProt Q9UBN7)         label 0
4  O=C(NO)c1ccc(Cn2cc(CN3CCCC3)c3ccccc32)cc1  Protein deacetylase HDAC6 (Homo sapiens, UniProt Q9UBN7)         label 0
5  CC(C)(C)OC(=O)NCc1cn(Cc2ccc(C(=O)NO)cc2)c2ccccc12  Protein deacetylase HDAC6 (Homo sapiens, UniProt Q9UBN7)         label 0
